Test system: MCF-7 Tam1
Test: drug sensitivity score (DSS) (DSS (dimensionless)); higher = more sensitive; extreme values may be limits of the assay
Conditions: 4-OH-tamoxifen in medium 1 µM; 72 h
experimental endpoint: drug sensitivity score
Answers are plain numbers.

| compound | subject of test | endpoint value |
| --- | --- | --- |
| S=P(N1CC1)(N1CC1)N1CC1 | MCF-7 Tam1 | 0 |
| CS(=O)(=O)OCCCCOS(C)(=O)=O | MCF-7 Tam1 | 0 |
| O=NN(CCCl)C(=O)NC1CCCCC1 | MCF-7 Tam1 | 0 |
| Cc1ccc(NC(=O)c2ccc(CN3CCN(C)CC3)cc2)cc1Nc1nccc(-c2cccnc2)n1 | MCF-7 Tam1 | 0 |
| Cc1cc(Nc2cc(CN3CCOCC3)c3nc(C)c(Cc4ccc(Cl)cc4F)n3n2)n[nH]1 | MCF-7 Tam1 | 2.42 |

Would you mind giving drug sensitivity score for every compound in the list below?
1. C=C(c1ccc(C(=O)O)cc1)c1cc2c(cc1C)C(C)(C)CCC2(C)C
2. COc1ccc(C2=N[C@@H](c3ccc(Cl)cc3)[C@@H](c3ccc(Cl)cc3)N2C(=O)N2CCNC(=O)C2)c(OC(C)C)c1
3. CO[C@H](C(=O)[C@@H](O)[C@@H](C)O)[C@@H]1Cc2cc3cc(O[C@H]4C[C@@H](O[C@@H]5C[C@@H](O)[C@H](O)[C@@H](C)O5)[C@H](O)[C@@H](C)O4)c(C)c(O)c3c(O)c2C(=O)[C@H]1O[C@H]1C[C@@H](O[C@@H]2C[C@@H](O)[C@@H](O[C@@H]3C[C@](C)(O)[C@H](O)[C@@H](C)O3)[C@@H](C)O2)[C@H](O)[C@@H](C)O1

3.15
0.214
14.1

---

System: MCF-7
Experiment: viability inhibition at highest dose (% inhibition); higher = more growth inhibition
Settings: 4-OH-tamoxifen in medium 1 µM; 72 h
Checkbox rule: viability inhibition at highest dose lower than 6 = 1.0; viability inhibition at highest dose not lower than 6 = 0.0.

Would you please look over these solved cases?
| molecule | label |
| --- | --- |
| COc1cc([C@@H]2c3cc4c(cc3[C@@H](O[C@@H]3O[C@@H]5CO[C@@H](C)O[C@H]5[C@H](O)[C@H]3O)[C@H]3COC(=O)[C@H]23)OCO4)cc(OC)c1O [Etoposide] (drug 10000 nM) | 0.0 |
| COC(=O)c1ccc2c(c1)NC(=O)/C2=C(\Nc1ccc(N(C)C(=O)CN2CCN(C)CC2)cc1)c1ccccc1 [Nintedanib (BIBF 1120)] (drug 10000 nM) | 1.0 |
| C=CC(=O)Nc1cc2c(Nc3ccc(F)c(Cl)c3)ncnc2cc1OCCCN1CCOCC1 [Canertinib] (drug 10000 nM) | 0.0 |
| COc1cc(CCc2cc(NC(=O)c3ccc(N4CC(C)NC(C)C4)cc3)n[nH]2)cc(OC)c1 (stereo unspecified) [AZD4547] (drug 1000 nM) | 1.0 |
| N#CC[C@H](C1CCCC1)n1cc(-c2ncnc3[nH]ccc23)cn1 (drug 10000 nM) | 1.0 |

Switching to the query record.
Find out if reported viability inhibition at highest dose for Cc1cc(Nc2nc(N[C@@H](C)c3ncc(F)cn3)ncc2Cl)[nH]n1 [AZD1480] (drug 1000 nM) is less than 6
0.0

---

System: ZR-75-1
Assay: relative IC50 (midpoint of fitted logistic curve, plateau may be below 50% inhibition; CellTiter-Glo viability); higher = less potent
Conditions: 4-OH-tamoxifen in medium 0 µM; 72 h
Exercise: for every item that follows, state its recorded relative IC50.
Give bare numbers, in nM.

| smiles text | subject of test | unit of measurement | relative IC50 |
| --- | --- | --- | --- |
| COc1cccc2c1C(=O)c1c(O)c3c(c(O)c1C2=O)C[C@@](O)(C(=O)CO)C[C@@H]3O[C@H]1C[C@H](N)[C@H](O)[C@H](C)O1 | ZR-75-1 | nM | 199 |

Let us examine a further case.
Quick one: relative IC50 of C=CCNC1=C2C[C@@H](C)C[C@H](OC)[C@H](O)[C@@H](C)/C=C(\C)[C@H](OC(N)=O)[C@@H](OC)/C=C\C=C(/C)C(=O)NC(=CC1=O)C2=O ?
74.5

---

Exercise: for every item that follows, state its recorded drug sensitivity score.
System: T-47D Tam1
Assay: drug sensitivity score (DSS) (DSS (dimensionless)); higher = more sensitive; extreme values may be limits of the assay
Details: 4-OH-tamoxifen in medium 1 µM; 72 h
Answers are plain numbers.

// solved cases for drug sensitivity score follow
| smiles text | drug sensitivity score |
| --- | --- |
| O=NN(CCCl)C(=O)NC1CCCCC1 | 0 |
| CC(C)n1cnc2c(NCCc3ccc(O)cc3)nc(-c3csc4ccccc34)nc21 | 1.95 |
| O=c1[nH]c(=O)n([C@H]2C[C@H](O)[C@@H](CO)O2)cc1F | 5.88 |
| CN1CCC(COc2cnc(-c3cccc(Cn4nc(-c5cccc(C#N)c5)ccc4=O)c3)nc2)CC1 | 3.13 |
| CC(=O)O[C@H]1C(=O)[C@@]2(C)[C@H]([C@H](OC(=O)c3ccccc3)[C@]3(O)C[C@H](OC(=O)[C@H](O)[C@@H](NC(=O)c4ccccc4)c4ccccc4)C(C)=C1C3(C)C)[C@]1(OC(C)=O)CO[C@@H]1C[C@@H]2O | 7.9 |

Would you mind giving drug sensitivity score for every compound in the list below?
1. Nc1ccn([C@@H]2O[C@H](CO)[C@@H](O)[C@@H]2O)c(=O)n1
2. O=S(=O)(c1cccc2cnccc12)N1CCCNCC1

1: 4.13; 2: 1.67

---

System: BT-474 Tam1
Assay: viability inhibition at highest dose (% inhibition); higher = more growth inhibition
Conditions: 4-OH-tamoxifen in medium 1 µM; 72 h
Structures can show the parent of a compound that is named as a salt.
Checkbox rule: viability inhibition at highest dose lower than 10 = T; viability inhibition at highest dose not lower than 10 = F.

Would you please look over these solved cases?
| molecule | subject of test | label |
| --- | --- | --- |
| CN(C)/N=N/c1[nH]cnc1C(N)=O [Dacarbazine] (drug 10000 nM) | BT-474 Tam1 | T |
| CC(=O)OC[C@H]1O[C@@H]([S-])[C@H](OC(C)=O)[C@@H](OC(C)=O)[C@@H]1OC(C)=O.CCP(CC)CC.[Au+] [Auranofin] (drug 2500 nM) | BT-474 Tam1 | F |
| COc1cc(F)c(F)c(Nc2ccc(I)cc2F)c1NS(=O)(=O)C1(C[C@H](O)CO)CC1 [Refametinib (RDEA119)] (drug 10000 nM) | BT-474 Tam1 | F |
| C1CN1c1nc(N2CC2)nc(N2CC2)n1 [Triethylenemelamine] (drug 10000 nM) | BT-474 Tam1 | T |
| CO[C@H]1C[C@@H]2CC[C@@H](C)[C@@](O)(O2)C(=O)C(=O)N2CCCC[C@H]2C(=O)O[C@H]([C@H](C)C[C@@H]2CC[C@@H](OP(C)(C)=O)[C@H](OC)C2)CC(=O)[C@H](C)/C=C(\C)[C@@H](O)[C@@H](OC)C(=O)[C@H](C)C[C@H](C)/C=C/C=C/C=C/1C [Ridaforolimus] (drug 100 nM) | BT-474 Tam1 | F |

Find out if reported viability inhibition at highest dose for CNC(=O)c1ccc(N2C(=S)N(c3ccc(C#N)c(C(F)(F)F)c3)C(=O)C23CCC3)cc1F [RD162] (drug 10000 nM) is less than 10
F

One more molecule: CC/C(=C(\c1ccc(O)cc1)c1ccc(OCCN(C)C)cc1)c1ccccc1 [4-hydroxytamoxifen] (drug 10000 nM)
F

One more molecule: Cn1c(CCCC(=O)O)nc2cc(N(CCCl)CCCl)ccc21 [Bendamustine (hydrochloride hydrate)] (drug 10000 nM)
T

One more molecule: O=C(NC[C@H](O)CO)c1ccncc1Nc1ccc(I)cc1F (drug 10000 nM)
F

One more molecule: CCNC(=O)CCC/C=C\C[C@@H]1[C@@H](/C=C/[C@@H](O)CCc2ccccc2)[C@H](O)C[C@@H]1O [Bimatoprost] (drug 5500 nM)
T

One more molecule: CN1CCN(CCOc2cc(OC3CCOCC3)c3c(Nc4c(Cl)ccc5c4OCO5)ncnc3c2)CC1 [Saracatinib] (drug 10000 nM)
F

One more molecule: NC(=O)c1cccc2cn(-c3ccc([C@@H]4CCCNC4)cc3)nc12 [MK-4827] (drug 10000 nM)
F

One more molecule: CN(N=O)C(=O)N[C@@H](C=O)[C@@H](O)[C@H](O)[C@H](O)CO [Streptozocin] (drug 10000 nM)
T

---

Tested on: ZR-75-1 Tam1
Test: drug sensitivity score (DSS) (DSS (dimensionless)); higher = more sensitive; extreme values may be limits of the assay
Conditions: 4-OH-tamoxifen in medium 1 µM; 72 h
Tick 1 if drug sensitivity score is 0.3 or greater. Tick -1 if drug sensitivity score is less than 0.3.

Would you please look over these solved cases?
| compound | label |
| --- | --- |
| CCNC(=O)c1noc(-c2cc(C(C)C)c(O)cc2O)c1-c1ccc(CN2CCOCC2)cc1 | 1 |
| COc1cc2ncnc(Nc3ccc(F)c(Cl)c3)c2cc1OCCCN1CCOCC1 | 1 |
| Cn1c(=O)n(-c2ccc(C(C)(C)C#N)cc2)c2c3cc(-c4cnc5ccccc5c4)ccc3ncc21 | 1 |
| Cn1nnc2c(C(N)=O)ncn2c1=O [Temozolomide] | -1 |
| Cn1cncc1[C@@](N)(c1ccc(Cl)cc1)c1ccc2c(c1)c(-c1cccc(Cl)c1)cc(=O)n2C [Tipifarnib (Zarnestra)] | 1 |
| C=CC[C@@H]1/C=C(\C)C[C@H](C)C[C@H](OC)[C@H]2O[C@@](O)(C(=O)C(=O)N3CCCC[C@H]3C(=O)O[C@H](/C(C)=C/[C@@H]3CC[C@@H](O)[C@H](OC)C3)[C@H](C)[C@@H](O)CC1=O)[C@H](C)C[C@@H]2OC | 1 |
| CC1(C)CCC(c2ccc(Cl)cc2)=C(CN2CCN(c3ccc(C(=O)NS(=O)(=O)c4ccc(N[C@H](CCN5CCOCC5)CSc5ccccc5)c(S(=O)(=O)C(F)(F)F)c4)cc3)CC2)C1 | -1 |
| Cc1cc(Nc2cc(CN3CCOCC3)c3nc(C)c(Cc4ccc(Cl)cc4F)n3n2)n[nH]1 | -1 |

Test whether the compound CO[C@H]1C[C@@H]2CC[C@@H](C)[C@@](O)(O2)C(=O)C(=O)N2CCCC[C@H]2C(=O)O[C@H]([C@H](C)C[C@@H]2CC[C@@H](OCCO)[C@H](OC)C2)CC(=O)[C@H](C)/C=C(\C)[C@@H](O)[C@@H](OC)C(=O)[C@H](C)C[C@H](C)/C=C/C=C/C=C/1C records drug sensitivity score of 0.3 or higher.
1
